System: Mus musculus
procedure text: The diuretic activity was measured after oral administration in saline loaded mice at 64 mg/kg after 5 hr
Format: functional, Urine
measurement type: Oral diuretic activity

Some solved entries appear below for comparison.
O=C(O)COc1ccc2c(-c3cccc(F)c3)noc2c1Cl = 0.81 m equiv [Na+] 5hr-1kg-1
O=C(O)COc1ccc2c(-c3ccc(O)cc3F)noc2c1Cl = 0.6 m equiv [Na+] 5hr-1kg-1
O=C(O)COc1ccc2c(-c3ccc(Cl)cc3)noc2c1Cl = 0.5 m equiv [Na+] 5hr-1kg-1
O=C(O)COc1ccc2c(-c3ccco3)noc2c1Cl = 0.6 m equiv [Na+] 5hr-1kg-1

Please examine the following record next.
Q. Answer with the recorded Oral diuretic activity for the compound listed here: `Cc1ccccc1-c1noc2c(Cl)c(OCC(=O)O)ccc12`
A. 1.76 m equiv [Na+] 5hr-1kg-1

====

The reader will find reported Oral diuretic activity values listed item by item below.
Test system: Mus musculus
procedure text: The diuretic activity was measured after oral administration in saline loaded mice at 64 mg/kg after 5 hr
Type: functional, Urine
Field: numeric (m equiv [Na+] 5hr-1kg-1). Do not append units.

Solved cases below.
O=C(O)COc1ccc2c(-c3c(F)cccc3F)noc2c1Cl = 10.4
Cc1c(OCC(=O)O)ccc2c(-c3ccccc3F)noc12 = 7.24

Q. Write down measured Oral diuretic activity (Mus musculus) for this compound. `O=C(O)COc1ccc2c(-c3ccc(F)cc3)noc2c1Cl`
A. 0.4

Q. Please tell me the measured Oral diuretic activity for `O=C(O)COc1ccc2c(-c3cc(F)ccc3F)noc2c1Cl` ; system: Mus musculus.
A. 8.3

Q. Please report Oral diuretic activity with Mus musculus for item NS(=O)(=O)c1cc(C(=O)O)c(NCc2ccco2)cc1Cl [FUROSEMIDE] .
A. 7.96

Q. Report value only: Oral diuretic activity, Mus musculus, `Cc1ccc(-c2noc3c(Cl)c(OCC(=O)O)ccc23)o1`
A. 1.5

Q. Find Oral diuretic activity for O=C(O)COc1ccc2c(-c3ccccc3F)noc2c1Br [BROCRINAT] on Mus musculus and write it down.
A. 11.53

Q. Provide the reported Oral diuretic activity (system: Mus musculus) for `O=C(O)COc1ccc2c(-c3ccccc3)noc2c1Cl`
A. 1.7

====

System: Mus musculus
procedure text: The diuretic activity was measured after oral administration in saline loaded mice at 64 mg/kg after 5 hr
Assay type: functional, Urine
measurement type: Oral diuretic activity (m equiv [Na+] 5hr-1kg-1)
Write the number in m equiv [Na+] 5hr-1kg-1 without appending the unit.

Below, each entry is followed by its recorded Oral diuretic activity result.
O=C(O)COc1ccc2c(-c3ccc(Cl)cc3F)noc2c1Cl = 1.4
O=C(O)COc1ccc2c(-c3cccs3)noc2c1Cl = 1

Q. Look up and report measured Oral diuretic activity for this entry: `O=C(O)COc1cc(Cl)c2c(-c3ccccc3F)noc2c1`
A. 1.16

Q. Annotate the molecule `O=C(O)COc1ccc2c(-c3ccccc3F)noc2c1Cl` with its measured Oral diuretic activity.
A. 10

Q. Note down Oral diuretic activity recorded for `O=C(O)COc1c(Cl)c(Cl)c2c(-c3ccccc3F)noc2c1Cl`
A. 1.65

Q. Quick one: give measured Oral diuretic activity for `O=C(O)COc1ccc2c(-c3ccc(F)cc3F)noc2c1Cl`
A. 0.9
